# credit: paper PMC5540273

Reported %Inh is given for each of the following molecules.
test system: GRK3; construct: gene ADRBK2; conditions: concentration: 1 μM, replicates: in singlicate; n = 1;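 further: KINOMEscan kinase panel screen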
Provide only the numeric value, understood in %.

Solved entries:
> print(dat)
                                   molecule  recorded.result
1  O=c1[nH]cc(-c2ccc(N3CCOCC3)cc2)c2sc(-c3cn[nH]c3)cc12                0
2  COc1cc(Nc2ncc3c(C)nc(-c4cc5ccccc5[nH]4)n3n2)cc(OC)c1OC                0
3  COc1cc(Nc2nccc(N3CCC(NC(=O)c4cc5ccccc5s4)C3)n2)cc(OC)c1OC (stereo not shown)               17

// switching to the query molecule
Please give the documented %Inh of COC(=O)Nc1nc2cc(Oc3ccc(NC(=O)Nc4cc(C(F)(F)F)ccc4F)cn3)ccc2[nH]1.Cl.Cl
0
